- measurementTarget: human full-length PDE2A3 enzyme (Homo sapiens (Human), UniProt O00408)
- Sequence (O00408 whole entry): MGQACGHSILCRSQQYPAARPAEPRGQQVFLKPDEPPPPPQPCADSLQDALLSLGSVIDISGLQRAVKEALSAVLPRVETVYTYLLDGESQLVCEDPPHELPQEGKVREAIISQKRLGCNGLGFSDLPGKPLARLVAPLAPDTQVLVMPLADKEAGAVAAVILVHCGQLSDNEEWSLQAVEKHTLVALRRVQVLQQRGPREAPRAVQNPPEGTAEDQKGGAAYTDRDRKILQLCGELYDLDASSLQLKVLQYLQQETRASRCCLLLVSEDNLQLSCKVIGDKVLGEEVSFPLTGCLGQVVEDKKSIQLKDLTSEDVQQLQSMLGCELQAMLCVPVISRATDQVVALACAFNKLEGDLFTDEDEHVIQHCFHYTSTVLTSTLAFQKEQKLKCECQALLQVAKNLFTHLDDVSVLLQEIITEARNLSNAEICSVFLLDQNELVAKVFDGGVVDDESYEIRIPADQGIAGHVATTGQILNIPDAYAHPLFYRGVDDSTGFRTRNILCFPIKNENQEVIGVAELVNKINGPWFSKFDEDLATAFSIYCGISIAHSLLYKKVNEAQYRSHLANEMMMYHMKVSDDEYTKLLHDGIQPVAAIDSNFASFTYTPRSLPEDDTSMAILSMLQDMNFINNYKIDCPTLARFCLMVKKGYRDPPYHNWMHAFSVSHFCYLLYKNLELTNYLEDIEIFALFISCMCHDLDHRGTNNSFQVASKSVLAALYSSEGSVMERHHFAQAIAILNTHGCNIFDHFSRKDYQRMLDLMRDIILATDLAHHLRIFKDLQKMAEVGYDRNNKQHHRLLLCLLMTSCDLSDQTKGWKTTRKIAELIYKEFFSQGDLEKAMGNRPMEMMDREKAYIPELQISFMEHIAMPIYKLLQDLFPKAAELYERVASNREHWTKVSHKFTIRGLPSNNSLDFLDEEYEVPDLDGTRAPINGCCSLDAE
pIC50: −log10 of the molar value.

molecule: CCCCCC[C@@H]([C@@H](C)O)n1cnc2c(N)ncnc21 (racemic)
pIC50: 5.77
